- applied conditions: in n-butanol, 328.15 K
readout kind: solubility (mole fraction)
Would you mind answering with just the numeric figure?

May I ask what solubility (mole fraction) has been recorded for `Cc1c(C(=O)O)cc([N+](=O)[O-])cc1[N+](=O)[O-]` ? 0.0393

###

- applied conditions: in isopropanol, 303.15 K
readout kind: solubility (mole fraction)
Would you mind answering with just the numeric figure?

May I ask what solubility (mole fraction) has been recorded for `Cc1c(C(=O)O)cc([N+](=O)[O-])cc1[N+](=O)[O-]` ? 0.017

###

- applied conditions: in n-pentanol, 308.15 K
readout kind: solubility (mole fraction)
Would you mind answering with just the numeric figure?

May I ask what solubility (mole fraction) has been recorded for `Cc1c(C(=O)O)cc([N+](=O)[O-])cc1[N+](=O)[O-]` ? 0.0226
